Data origin: paper PMC7819943

Biological target: OsSMF1 (Oryza sativa, UniProt Q6ZLB0 1-436)
Sequence: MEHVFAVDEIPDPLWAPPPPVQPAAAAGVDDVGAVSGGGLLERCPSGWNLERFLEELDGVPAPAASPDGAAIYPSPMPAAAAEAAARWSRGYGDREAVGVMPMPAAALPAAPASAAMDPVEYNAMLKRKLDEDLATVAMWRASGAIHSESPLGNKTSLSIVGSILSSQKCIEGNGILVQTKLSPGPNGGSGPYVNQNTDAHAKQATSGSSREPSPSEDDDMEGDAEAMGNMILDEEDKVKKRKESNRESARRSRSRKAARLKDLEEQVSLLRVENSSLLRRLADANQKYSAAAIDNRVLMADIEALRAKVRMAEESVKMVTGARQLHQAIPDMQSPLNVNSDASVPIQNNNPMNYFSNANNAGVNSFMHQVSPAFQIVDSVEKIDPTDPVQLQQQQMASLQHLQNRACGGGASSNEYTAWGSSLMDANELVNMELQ
Test: protein-binding microarray (RPBM); PBS, 2% BSA, 51.3 ng/ul salmon testes DNA, 50 uM zinc acetate, 200 nM TF, 25 C, 1 h; high values mean tight binding
Settings: protein: recombinant; tags: N-terminal polyhistidine and DsRed monomer fusion (pET32a); chain copies: 2; label: CyDye5-dUTP incorporated in the synthesized complementary strand; 3' TTTTT single-stranded linker to array surface; dsDNA, one strand shown
The full ranking holds about 39,000 sequences; the median of “fluorescence intensity (a.u.)” is about 4,300, and the highest 2% start at about 39,000. What follows is part of a selection rich in the highest values, with near analogues and random picks from the rest.
value type: binding signal

Some solved cases for reference:
polymer sequence	binding signal
GGCGGCGGGTGGAGGGACGCCCGCTGAATCCGCCACCGGTCGGAGTCACCTAGTGCAG	3170 fluorescence intensity (a.u.)
AAATGGGGCCTAGAGTTCCAACCAATTGCAGCAAGAGCAGCGGAGTCACCTAGTGCAG	3230 fluorescence intensity (a.u.)
CCGACGAGGACGAGGCGGCGTGGTCGAAGCCGGCGGTCGGCGGAGTCACCTAGTGCAG	42500 fluorescence intensity (a.u.)
AATTGGGATCAAAGCCTTCATGTTCATAGCAAATCAAGAGCGGAGTCACCTAGTGCAG	45900 fluorescence intensity (a.u.)
AATATAATGGCCGCTCGCTGATGGGTGCGTCATGCACCCTCGGAGTCACCTAGTGCAG	4060 fluorescence intensity (a.u.)
ATACTTGGACTATTCTCTTTCGGAAACTTGACTAGTTACACGGAGTCACCTAGTGCAG	43200 fluorescence intensity (a.u.)
ATATACTATTCTCATCTGTCATACACACATCACATCTTGACGGAGTCACCTAGTGCAG	25700 fluorescence intensity (a.u.)
TAGCAAGAGACCTTGTTGAGCATGTCATCAATGTCAAGTGCGGAGTCACCTAGTGCAG	4150 fluorescence intensity (a.u.)

Next sequence, please.
Query for OsSMF1 (Oryza sativa, UniProt Q6ZLB0 1-436): what binding signal does the record show for TTTGCCACTGTCCTACTAGATCTTGGTCTTATTTGAGAAGCGGAGTCACCTAGTGCAG ?
3550 fluorescence intensity (a.u.)
